Where do the numbers come from? From patent US9751869B2.

- targetOrTestSystem: LXRβ (Homo sapiens)
- Construct: Co-transfection expression plasmids, comprising full-length LXRα (pCMX-h LXRα or LXRβ (pCMX-hLXRβ))
- assay: LXR/LXRE co-transfection assay (luciferase reporter) in CV-1 cells, LXRβ
- conditionLabel: CV-1 cells transfected with pCMX-hLXRβ and LXREx1-Tk-Luciferase, 20 hours incubation, read-out: LXRbeta agonism EC50

- molecule: "Cc1nc(-c2ccc3c(c2)OC(F)(F)O3)c(-c2cc(-c3cccc(S(C)(=O)=O)c3)ccc2-c2cc(C(C)O)nn2C)o1 (stereo not drawn) [Example 101]"
  EC50: "79 nM"
- molecule: "Cc1nc(-c2ccc(Cl)cc2Cl)c(-c2cc(-c3cccc(S(C)(=O)=O)c3)ccc2-n2cc(Cl)c(C(F)(F)F)n2)o1"
  EC50: "60 nM"
- molecule: "Cc1cc(C(C)(F)F)nn1-c1ccc(-c2cc(F)c(CO)c(S(C)(=O)=O)c2)cc1-n1nncc1-c1ccc(OC(F)(F)F)cc1"
  EC50: "2040 nM"
- molecule: "Cc1nc(-c2cc(-c3cc(F)c(CO)c(S(C)(=O)=O)c3)ccc2-n2nc(C(F)(F)F)cc2C2CC2)c(-c2ccc(OC(F)(F)F)cc2)o1"
  EC50: "458 nM"
- molecule: "Cc1nc(-c2ccc(OC(F)F)cc2)c(-c2cc(-c3cc(F)c(CO)c(S(C)(=O)=O)c3)ccc2-n2ccc(C(F)(F)F)n2)o1"
  EC50: "6 nM"
- molecule: "CC(O)C(F)(F)c1cc(-c2ccc(-c3cccc(S(C)(=O)=O)c3)cc2-n2nncc2-c2ccc(OC(F)(F)F)cc2)n(C)n1 (stereo not drawn)"
  EC50: "783 nM"

----------
- targetOrTestSystem: LXRβ (Homo sapiens)
- Construct: Co-transfection expression plasmids, comprising full-length LXRα (pCMX-h LXRα or LXRβ (pCMX-hLXRβ))
- assay: LXR/LXRE co-transfection assay (luciferase reporter) in CV-1 cells, LXRβ
- conditionLabel: CV-1 cells transfected with pCMX-hLXRβ and LXREx1-Tk-Luciferase, 20 hours incubation, read-out: LXRbeta agonism EC50
pEC50: −log10 of the molar value.
# pEC50 per record follows
valueKind: pEC50

- compound: "Cc1nc(-c2ccc(OC(F)(F)F)cc2)c(-c2cc(-c3cccc(C(C)(C)C(N)=O)c3)ccc2-n2ccc(C(F)(F)F)n2)o1 [Example 343]"
  valueKind: "pEC50"
  quantitativeResult: 6.83
- compound: "Cc1nc(-c2ccc(OC(F)(F)F)cc2)c(-c2cc(-c3cc(F)c(CO)c(S(C)(=O)=O)c3)ccc2-n2cc(C)c(C(F)(F)F)n2)o1 [Example 439]"
  valueKind: "pEC50"
  quantitativeResult: 7.42
- compound: "Cc1nc(-c2ccc(OC(F)(F)F)cc2)c(-c2cc(-c3cccc(S(C)(=O)=O)c3)ccc2-n2ccc(C(N)=O)n2)o1 [Example 308]"
  valueKind: "pEC50"
  quantitativeResult: 5.78
- compound: "CN(C)S(=O)(=O)c1cccc(-c2ccc(-c3cc(C(C)(F)F)nn3C)c(-n3nncc3-c3ccc(OC(F)(F)F)cc3)c2)c1 [Example 19]"
  valueKind: "pEC50"
  quantitativeResult: 7.04
- compound: "Cc1nc(-c2ccc3c(c2)OC(F)(F)O3)c(-c2cc(-c3cc(F)c(CO)c(S(C)(=O)=O)c3)ccc2-c2cc(C(=O)NC(C)(C)C)nn2C)o1 [Example 114]"
  valueKind: "pEC50"
  quantitativeResult: 6.56
- compound: "Cc1nc(-c2ccc(OC(F)(F)F)cc2)c(-c2cc(-c3cccc(S(C)(=O)=O)c3)ccc2-n2ccc(C(C)O)n2)o1 (single isomer, unassigned) [Example 367]"
  valueKind: "pEC50"
  quantitativeResult: 6.58
- compound: "Cc1nc(-c2ccc(OC(F)(F)F)cc2)c(-c2cc(-c3cccc(S(C)(=O)=O)c3)ccc2-n2ccc(COC(N)=O)n2)o1 [Example 374]"
  valueKind: "pEC50"
  quantitativeResult: 6.38
- compound: "Cc1nc(-c2ccc(OC(F)(F)F)cc2)c(-c2cc(-c3cccc(S(C)(=O)=O)c3)ccc2-n2ccc(C(F)(F)F)n2)o1 [Example 309]"
  valueKind: "pEC50"
  quantitativeResult: 6.92
- compound: "Cc1nc(-c2ccc(OC(F)F)cc2Cl)c(-c2cc(-c3cc(F)c(CO)c(S(C)(=O)=O)c3)ccc2-n2cc(Cl)c(C(F)(F)F)n2)o1 [Example 432]"
  valueKind: "pEC50"
  quantitativeResult: 7.72
- compound: "Cc1nc(-c2ccc(Cl)cc2Cl)c(-c2cc(-c3cc(F)c(CO)c(S(C)(=O)=O)c3)ccc2-n2cc(Cl)c(C(F)(F)F)n2)o1 [Example 424]"
  valueKind: "pEC50"
  quantitativeResult: 7.89
- compound: "Cc1nc(-c2cc(-c3cccc(S(C)(=O)=O)c3)ccc2-n2ccc(C(F)(F)F)n2)c(-c2ccc(OC(F)F)nc2)o1 [Example 394]"
  valueKind: "pEC50"
  quantitativeResult: 7.80
- compound: "Cc1nc(-c2cc(-c3cc(F)c(CO)c(S(C)(=O)=O)c3)ccc2-n2ccc(C(F)(F)F)n2)c(-c2ccc(OC(F)F)nc2)o1 [Example 395]"
  valueKind: "pEC50"
  quantitativeResult: 7.96

----------
- targetOrTestSystem: LXRβ (Homo sapiens, UniProt P55055)
- Construct: Co-transfection expression plasmids, comprising full-length LXRα (pCMX-h LXRα or LXRβ (pCMX-hLXRβ))
- Sequence (P55055 whole entry): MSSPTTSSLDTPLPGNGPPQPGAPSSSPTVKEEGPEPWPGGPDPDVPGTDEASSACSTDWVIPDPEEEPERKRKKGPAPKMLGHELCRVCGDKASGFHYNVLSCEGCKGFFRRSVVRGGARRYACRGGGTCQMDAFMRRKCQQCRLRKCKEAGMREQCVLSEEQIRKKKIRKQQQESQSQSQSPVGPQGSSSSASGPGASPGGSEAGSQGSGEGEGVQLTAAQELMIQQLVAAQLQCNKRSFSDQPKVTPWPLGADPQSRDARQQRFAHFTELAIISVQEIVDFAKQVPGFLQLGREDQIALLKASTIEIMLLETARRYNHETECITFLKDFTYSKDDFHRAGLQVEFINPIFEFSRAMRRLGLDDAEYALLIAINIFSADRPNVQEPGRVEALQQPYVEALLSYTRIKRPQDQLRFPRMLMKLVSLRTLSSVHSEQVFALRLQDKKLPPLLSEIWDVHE
- Sequence (P19793 whole entry partner): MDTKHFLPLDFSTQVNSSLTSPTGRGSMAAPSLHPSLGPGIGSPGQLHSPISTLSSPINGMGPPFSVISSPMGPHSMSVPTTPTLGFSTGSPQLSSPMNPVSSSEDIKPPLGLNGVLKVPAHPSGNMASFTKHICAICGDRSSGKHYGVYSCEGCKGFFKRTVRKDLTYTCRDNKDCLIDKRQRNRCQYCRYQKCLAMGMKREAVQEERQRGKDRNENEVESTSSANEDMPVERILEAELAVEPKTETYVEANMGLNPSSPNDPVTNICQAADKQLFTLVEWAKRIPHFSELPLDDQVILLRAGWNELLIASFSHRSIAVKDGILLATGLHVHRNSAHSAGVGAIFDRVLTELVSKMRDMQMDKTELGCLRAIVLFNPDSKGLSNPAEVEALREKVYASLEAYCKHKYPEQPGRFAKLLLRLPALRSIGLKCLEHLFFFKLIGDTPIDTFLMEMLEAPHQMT
- assay: LXR/LXRE co-transfection assay (luciferase reporter) in CV-1 cells, LXRβ
- conditionLabel: CV-1 cells transfected with pCMX-hLXRβ and LXREx1-Tk-Luciferase, 20 hours incubation, read-out: LXRbeta agonism EC50
pEC50: −log10 of the molar value.

- compound: "Cc1nc(-c2ccc(OC(F)F)nc2)c(-c2cc(-c3cc(F)c(CO)c(S(C)(=O)=O)c3)ccc2-n2ccc(C(F)(F)F)n2)o1 [Example 354]"
  pEC50: 8.00
- compound: "CNC(=O)C(F)(F)c1cc(-c2ccc(-c3cc(F)c(CO)c(S(C)(=O)=O)c3)cc2-c2oc(C)nc2-c2ccc3c(c2)OC(F)(F)O3)n(C)n1 [Example 50]"
  pEC50: 6.91
- compound: "Cc1nc(-c2ccc3c(c2)OC(F)(F)O3)c(-c2cc(-c3cc(F)c(CO)c(S(C)(=O)=O)c3)ccc2-n2nc(C(F)(F)F)cc2Cl)o1 [Example 347]"
  pEC50: 7.46
- compound: "Cc1nc(-c2ccc(OC(F)F)c(F)c2)c(-c2cc(-c3cc(F)c(CO)c(S(C)(=O)=O)c3)ccc2-c2cc(C(F)(F)C(=O)N(C)C)nn2C)o1 [Example 79]"
  pEC50: 7.77
- compound: "Cc1nc(-c2ccc3c(c2)OC(F)(F)O3)c(-c2cc(-c3cc(F)c(CO)c(S(C)(=O)=O)c3)ccc2-c2cc(C(C)(C)C#N)nn2C)o1 [Example 67]"
  pEC50: 7.62
- compound: "CCOc1cc(C(F)(F)F)nn1-c1ccc(-c2cccc(S(C)(=O)=O)c2)cc1-c1nc(C)oc1-c1ccc(OC(F)(F)F)cc1 [Example 311]"
  pEC50: 6.10
- compound: "Cc1nc(-c2cc(-c3cccc(S(C)(=O)=O)c3)ccc2-n2nc(C(F)(F)F)cc2C)c(-c2ccc(OC(F)(F)F)cc2)o1 [Example 385]"
  pEC50: 7.38
- compound: "Cc1nc(-c2cc(-c3cccc(S(C)(=O)=O)c3)ccc2-n2nc(C(F)(F)F)cc2C2CC2)c(-c2ccc(OC(F)(F)F)cc2)o1 [Example 312]"
  pEC50: 6.10
- compound: "Cc1nc(-c2ccc3c(c2)OC(F)(F)O3)c(-c2cc(-c3cc(F)c(CO)c(S(C)(=O)=O)c3)ccc2-c2cc(C(F)(F)C(=O)N3CCOCC3)nn2C)o1 [Example 81]"
  pEC50: 6.74
- compound: "COc1ncc(-c2oc(C)nc2-c2cc(-c3cccc(S(C)(=O)=O)c3)ccc2-n2ccc(C(F)(F)F)n2)cc1F [Example 407]"
  pEC50: 7.17
- compound: "Cn1nc(C(F)(F)C(C)(C)O)cc1-c1ccc(-c2cccc(S(C)(=O)=O)c2)cc1-n1nncc1-c1ccc(Cl)cc1 [Example 31]"
  pEC50: 6.25
- compound: "Cc1nc(-c2cc(F)c(OC(F)F)c(F)c2)c(-c2cc(-c3cc(F)c(CO)c(S(C)(=O)=O)c3)ccc2-n2ccc(C(F)(F)F)n2)o1 [Example 352]"
  pEC50: 7.85

----------
- targetOrTestSystem: LXRβ (Homo sapiens, UniProt P55055)
- Construct: Co-transfection expression plasmids, comprising full-length LXRα (pCMX-h LXRα or LXRβ (pCMX-hLXRβ)); expressed in transfected cells; host or cells: CV-1 African green monkey kidney cells, transient transfection with pCMX-hLXRβ
- assay: LXR/LXRE co-transfection assay (luciferase reporter) in CV-1 cells, LXRβ
- Type: cell-based
- conditionLabel: CV-1 cells transfected with pCMX-hLXRβ and LXREx1-Tk-Luciferase, 20 hours incubation, read-out: LXRbeta agonism EC50
valueKind: EC50 (nM)

- compound: "Cc1nc(-c2ccc(OC(F)(F)F)cc2)c(-c2cc(-c3cccc(S(C)(=O)=O)c3)ccc2-n2ccc(C(C)O)n2)o1 (single isomer, unassigned) [Example 368]"
  displayUnit: "nM"
  quantitativeResult: 890
- compound: "CC(C)c1nc(-c2cc(-c3cccc(S(C)(=O)=O)c3)ccc2-n2ccc(C(F)(F)F)n2)c(-c2ccc(OC(F)(F)F)cc2)o1"
  displayUnit: "nM"
  quantitativeResult: 200
- compound: "Cc1c(C(C)(F)F)nn(C)c1-c1ccc(-c2cccc(S(C)(=O)=O)c2)cc1-n1nncc1-c1ccc(OC(F)(F)F)cc1"
  displayUnit: "nM"
  quantitativeResult: 31
